# ASSAY TARGET: T1, human SLITRK6 on cells (human, UniProt Q9H5Y7 27-841)
# T1 construct: whole, on cells
# EXPERIMENT SUMMARY: flow cytometry on SW780 cells
Catalogue of EC50 readings, one per entry.

[[record]]
binder = "hu1H2-13 (antibody, V domains shown) VH: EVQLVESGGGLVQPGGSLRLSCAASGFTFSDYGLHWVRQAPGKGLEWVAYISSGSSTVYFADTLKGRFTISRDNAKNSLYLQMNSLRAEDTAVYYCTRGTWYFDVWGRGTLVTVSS VL: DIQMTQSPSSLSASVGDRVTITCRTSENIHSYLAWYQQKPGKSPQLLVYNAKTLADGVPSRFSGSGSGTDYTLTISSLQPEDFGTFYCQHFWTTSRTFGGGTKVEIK"
value_measured = "0.45 nM"

[[record]]
binder = "hu1H2-03 (antibody, V domains shown, see m20) VH: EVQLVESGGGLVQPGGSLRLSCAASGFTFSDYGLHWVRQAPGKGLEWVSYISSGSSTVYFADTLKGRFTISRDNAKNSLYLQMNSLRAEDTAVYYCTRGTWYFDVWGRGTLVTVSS VL: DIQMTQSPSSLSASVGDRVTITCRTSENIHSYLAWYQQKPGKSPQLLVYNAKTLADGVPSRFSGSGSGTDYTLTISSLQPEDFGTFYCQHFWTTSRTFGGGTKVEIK"
value_measured = "0.41 nM"

[[record]]
binder = "Sirtratumab (antibody, V domains shown, Prior-art benchmark antibody; also called Sirtratuzumab) VH: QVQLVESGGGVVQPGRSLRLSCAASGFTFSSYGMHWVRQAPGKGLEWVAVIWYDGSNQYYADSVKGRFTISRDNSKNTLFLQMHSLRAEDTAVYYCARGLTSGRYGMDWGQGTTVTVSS VL: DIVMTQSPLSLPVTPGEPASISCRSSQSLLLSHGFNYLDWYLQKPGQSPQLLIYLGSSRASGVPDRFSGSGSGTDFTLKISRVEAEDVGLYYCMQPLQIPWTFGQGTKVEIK"
value_measured = "0.33 nM"


Now look at this entry.
// recorded EC50 for hu14G1-03 (antibody, V domains shown) VH: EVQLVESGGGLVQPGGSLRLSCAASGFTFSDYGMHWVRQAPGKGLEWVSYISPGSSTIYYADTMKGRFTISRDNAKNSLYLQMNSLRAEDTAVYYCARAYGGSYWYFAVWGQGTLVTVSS VL: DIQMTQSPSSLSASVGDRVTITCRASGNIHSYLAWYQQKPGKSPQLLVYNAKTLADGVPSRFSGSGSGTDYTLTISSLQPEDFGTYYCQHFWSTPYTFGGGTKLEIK : 0.61 nM
